These measurements were taken from PubChem BioAssay.

// reported z-score per item
- assay_overview: basal HepG2 mitochondrial membrane potential changes, profiling panel, cell-based, JC-1 fluorescence, 24 h, 100 nL compound (AID 1167); further: test concentration not given here
- assay_conditions: higher = more signal
Lab note: record the figure alone, no unit after it.

Look over these answered cases.
1. CCOC(=O)C1=CC[C@@H](c2ccccc2)N(S(=O)(=O)c2ccc(C)cc2)[C@H]1c1cccc(OC)c1 ... 2.94
2. Cc1ccc(S[C@]2(C(=O)NCc3ccccc3)CC(=O)N(Cc3cc(C(F)(F)F)cc(C(F)(F)F)c3)[C@@H]2c2ccc(CO)cc2I)cc1 ... 0.994
3. CCOC(=O)C1=CCC(c2ccco2)N(S(=O)(=O)c2ccc(C)cc2)C1 (stereo not given) ... -0.843
4. COCCOC(=O)N1C(=O)[C@@]2(c3cc(C#CC4(O)CCCCCC4)ccc31)[C@H](c1ccc(OCCO)cc1)N1[C@H](c3ccccc3)[C@H](c3ccccc3)OC(=O)[C@H]1[C@@H]2C(=O)Nc1nc2ccccc2s1 ... -3.31
5. C=C(C(=O)CC[C@@H](OC(=O)c1ccccc1-c1ccccc1C(=O)O)c1ccccc1OCCO)C(C)C ... -1.1
6. NC(=O)[C@H]1[C@@H]2C(=O)O[C@@H](c3ccccc3)[C@@H](c3ccccc3)N2[C@@H](c2ccc(O)cc2)[C@]12C(=O)Nc1ccc(C#CC3=CCCCC3)cc12 ... -3.68
7. CCCCCCCCCCC(O)C1C=CC2C(=O)N(C)C(=O)C2N1Nc1cc(OC)c(OC)c(OC)c1 (stereo not given) ... -0.993
8. CC(=O)N1CC(C(O)C2C=CC3C(=O)NC(=O)C3N2Nc2ccc(Cl)cc2Cl)c2ccccc21 (stereo not given) ... -1.29
9. NCCCCCNC(=O)[C@H]1C[C@H]2C(=O)N[C@@H](Cc3ccccc3)C(=O)N2[C@H]1c1ccc(O)cc1 ... -0.746
10. CCOC(=O)C[C@H]1[C@H](OC(=O)c2ccc(C(=O)c3ccccc3)cc2)[C@@H](NC(=O)CC(C)C)c2cc(OCCCO)ccc2N1C(=O)Cc1ccc(OC)cc1 ... 1.88

QUERY: Input CN1C(=O)C2C=CC(C(O)c3ccc(I)cc3)N(Nc3ccccc3)C2C1=O (stereo not given) , output reported z-score.
RESULT: -1.07

QUERY: Input "CN(C)CCCCCCNC(=O)[C@@H]1C[C@@H]2C(=O)N[C@@H](CCCCN)C(=O)N2[C@@H]1c1ccc(O)cc1" , output reported z-score.
RESULT: -0.695

QUERY: Input "COc1ccc([Si](C)(C)[C@@H]2[C@@H](CC(=O)N3Cc4ccccc4C[C@H]3CO)O[C@]3(C(=O)N(c4ccccc4)c4ccccc43)[C@H]2C)cc1" , output reported z-score.
RESULT: 1.37

QUERY: Input "CN1C(=O)[C@@H]2[C@@H](CC(COc3ccccc3)=C([C@H](O)CCc3ccccc3)[C@@H]2CO)C1=O" , output reported z-score.
RESULT: 0.397

QUERY: Input "O=C(O)[C@H]1C[C@H]2C(=O)N[C@@H](Cc3ccccc3)C(=O)N2[C@H]1c1cccc(OCCO)c1" , output reported z-score.
RESULT: 1.64

###

- assay_overview: small-molecule microarray binders of probe aLefty2, primary screen, biochemical, biotinylated probe, 635/667 nm fluorescence (AID 1094);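 further: score merges spot fluorescence near 667 nm with spot signal-to-noise ratio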
- assay_conditions: higher = more signal
// reported composite z-score per item
Lab note: record the figure alone, no unit after it.

Look over these answered cases.
1. CN(C)C(=O)[C@@]1(CCC(=O)OC(C)(C)C)N=C(c2ccc(OCCCO)cc2)O[C@H]1c1ccccc1CN=[N+]=[N-] ... 0.047
2. O=C1C2C=CC(C(O)c3ccco3)N(Nc3ccccc3)C2C(=O)N1c1ccccc1 (stereo not given) ... -0.147

QUERY: Input "O=C1N[C@@H](Cc2ccccc2)C(=O)N2[C@@H]1C[C@@H](C(=O)O)[C@H]2c1ccc(O)cc1" , output reported composite z-score.
RESULT: 0.391

QUERY: Input CN1C(=O)C2C=CC(C(O)c3ccc(I)cc3)N(Nc3ccccc3)C2C1=O (stereo not given) , output reported composite z-score.
RESULT: 0.107

QUERY: Input "COCC(=C=CC[C@@H](O)c1cccc(OCCO)c1)CCO" , output reported composite z-score.
RESULT: -0.171

QUERY: Input "COc1ccc([Si](C)(C)[C@@H]2[C@@H](CCn3cc([C@H](O)c4ccccc4)nn3)O[C@]3(C(=O)N(Cc4cccc(N5C(=O)c6cccc7cccc5c67)c4)c4ccccc43)[C@H]2C)cc1" , output reported composite z-score.
RESULT: -0.139

QUERY: Input "COCCCNC(=O)[C@@]1(c2ccc([N+](=O)[O-])cc2)CC(=O)N(CC23CC4CC(CC(C4)C2)C3)[C@@H]1c1ccc(CO)cc1I" , output reported composite z-score.
RESULT: 0.0283

QUERY: Input "COC(=O)[C@@]1(Cc2ccc(OC)cc2)[C@H]2c3cc(C(=O)N4CCCC4)n(Cc4ccc(OC(F)(F)F)cc4)c3C[C@H]2CN1C(=O)c1ccccc1" , output reported composite z-score.
RESULT: 0.412

QUERY: Input Cc1ccc(C(C)CC(O)C2C=CC3C(=O)N(c4ccccc4)C(=O)C3N2Nc2ccc(C#N)cc2)o1 (stereo not given) , output reported composite z-score.
RESULT: 0.188

QUERY: Input "COCCCNC(=O)[C@@H]1c2ccccc2C(=O)N(C2Cc3ccccc3C2)[C@H]1c1ccc(CO)cc1" , output reported composite z-score.
RESULT: -0.0237

QUERY: Input CC(C)C[C@@H]1NC(=O)[C@@]23C(=O)N[C@@H](Cc4ccccc4)C2[C@H](C)[C@@]2(C)O[C@H]2C3/C=C/C/C=C\CNC(=O)[C@@H](C)NC1=O (stereo not given in full) , output reported composite z-score.
RESULT: -0.178

QUERY: Input "COc1ccc(C(=O)Nc2cccc(CN3C(=O)[C@@]4(O[C@@H](CC(=O)N(CCO)Cc5ccccc5)[C@H]([Si](C)(C)c5ccc(OC)cc5)[C@H]4C)c4ccccc43)c2)cc1" , output reported composite z-score.
RESULT: -0.175

###

- study_target: Concanavalin-A (Canavalia ensiformis)
- assay_overview: ConA small-molecule binders, primary screen, artefact control for SMM control protein annotation, biochemical, small-molecule microarray, Alexa647 label, 635 nm (AID 1127);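 further: z combines 667 nm emission intensity with signal-to-noise across three replicate slides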
- assay_conditions: ConA-A647 binding fluorescence, higher = more signal
// reported composite z-score per item
Lab note: record the figure alone, no unit after it.

1) COC(=O)[C@@]1(Cc2ccccc2)[C@H]2c3cc(C(=O)N(C)C)n(CCn4cc([N+](=O)[O-])nc4C)c3C[C@H]2CN1C(=O)c1ccccc1 ... 0.526
2) [N-]=[N+]=NCc1ccccc1[C@@H]1OC(c2ccc(OCCCO)cc2)=N[C@]1(Cc1ccccc1N=[N+]=[N-])C(=O)NCCN1CCOCC1 ... 0.863
3) CC(C)C[C@@H]1NC(=O)[C@@H]2C[C@H](C(=O)NCCCCCC[N+](C)(C)C)[C@H](c3cccc(OCCO)c3)N2C1=O ... 0.644
4) CN1C(=O)C2C(C1=O)C1C=C(CCCO)C2C(c2cccs2)N1Cc1cc2c(cc1Br)OCO2 (stereo unspecified) ... 1.18
5) CCCCCN1CC=CC23O[C@@H]4C=CCOC(=O)[C@@H]4[C@H]2C(=O)N(CCO)[C@@H]3C1=O (stereo partly specified) ... -0.502
6) COc1cc(NN2C(C(O)C3CCCCC3)C=CC3C(=O)N(c4ccccc4)C(=O)C32)cc(OC)c1OC (stereo unspecified) ... 1.11
7) CC1(C)C(=O)C(c2ccccc2)=C2CN3C(=O)N(CCc4ccccc4)C(=O)C3(Cc3ccc(F)cc3)C=C21 (stereo unspecified) ... 0.477
8) NCCCCCNC(=O)[C@H]1C[C@H]2C(=O)N[C@@H](Cc3ccccc3)C(=O)N2[C@H]1c1ccc(O)cc1 ... 1.08

QUERY: Input "Cc1c(NC(=O)/C(C#N)=C/c2ccccc2Cl)c(=O)n(-c2ccccc2)n1C" , output reported composite z-score.
RESULT: 0.996

QUERY: Input CC1(C)C(=O)C(c2ccccc2)=C2CN3C(=O)N(CCc4ccccc4)C(=O)C3(Cc3ccc(C(F)(F)F)cc3)C=C21 (stereo unspecified) , output reported composite z-score.
RESULT: 0.702

QUERY: Input "CCOC(=O)C=Cc1cc(F)ccc1O" , output reported composite z-score.
RESULT: 0.126

QUERY: Input "C[C@]1(C(=O)NCCN2CCOCC2)c2ccccc2C(=O)N(Cc2cc(F)cc(C(F)(F)F)c2)[C@H]1c1ccc(CO)cc1" , output reported composite z-score.
RESULT: 0.828

QUERY: Input "C=C(/C(=C/C[C@@H](OC(C)=O)c1ccc(OCCO)cc1)c1cc(C(=O)OC)ccc1OC)C(C)C" , output reported composite z-score.
RESULT: 0.697

QUERY: Input "Cc1ccc(S[C@]2(C(=O)NCc3ccccc3)CC(=O)N(Cc3cc(C(F)(F)F)cc(C(F)(F)F)c3)[C@@H]2c2ccc(CO)cc2I)cc1" , output reported composite z-score.
RESULT: -1.54

QUERY: Input CCCCCCCCCCC(O)C1C=CC2C(=O)N(c3ccccc3)C(=O)C2N1Nc1ccccc1F (stereo unspecified) , output reported composite z-score.
RESULT: 0.17

QUERY: Input "O=C1O[C@H](c2ccccc2)[C@H](c2ccccc2)N2[C@H]1[C@@H](C(=O)O)[C@]1(C(=O)Nc3ccc(C#CC4(O)CCCCCC4)cc31)[C@H]2c1ccc(O)cc1" , output reported composite z-score.
RESULT: 0.437
